Measured on: UniProt P17931
Sequence (P17931 whole entry): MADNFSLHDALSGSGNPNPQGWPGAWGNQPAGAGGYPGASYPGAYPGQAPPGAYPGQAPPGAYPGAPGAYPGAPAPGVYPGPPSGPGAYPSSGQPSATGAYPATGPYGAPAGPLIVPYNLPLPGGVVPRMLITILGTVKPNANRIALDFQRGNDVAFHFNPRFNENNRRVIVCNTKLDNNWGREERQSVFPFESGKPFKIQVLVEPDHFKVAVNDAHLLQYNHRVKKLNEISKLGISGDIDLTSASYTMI
Assay protocol: Competitive binding assay: biotinylated hGal-3 binding to microplate-adsorbed asialofetuin (ASF), spectrophotometric
Test parameters: Table 12; hGal-3; read-out: IC50 (Gal-3 inhibition)
Property name: IC50 (nM)

Here is how some molecules turned out for IC50.
INSERT INTO measurements (molecule, val) VALUES
  ('CO[C@@H]1[C@@H](n2cc(-c3cc(F)c(F)c(F)c3)nn2)[C@@H](O)[C@@H](CO)O[C@H]1S[C@H](C(=O)N1CCC(F)(F)CC1)C1(O)CCC(F)(F)CC1 [Example 2.44.226S.I.]', 50),
  ('CO[C@@H]1[C@@H](n2cc(-c3cc(F)c(F)c(F)c3)nn2)[C@@H](O)[C@@H](CO)O[C@H]1SC(C(=O)NC1CCC(C)(C)CC1)C1(O)CCC(F)(F)CC1 (some centres unmarked)', 390),
  ('CO[C@@H]1[C@@H](n2cc(-c3cc(F)c(F)c(F)c3)nn2)[C@@H](O)[C@@H](CO)O[C@H]1SC(C(=O)N(C)CCC1CC1)C1(O)CCC(F)(F)CC1 (some centres unmarked)', 50),
  ('CO[C@@H]1[C@@H](n2cc(-c3cc(F)c(F)c(F)c3)nn2)[C@@H](O)[C@@H](CO)O[C@H]1SC(C(=O)NC1CCOCC1)C1(O)CCC(F)(F)CC1 (some centres unmarked)', 80),
  ('CO[C@@H]1[C@@H](n2cc(-c3cc(F)c(F)c(F)c3)nn2)[C@@H](O)[C@@H](CO)O[C@H]1SC(C(=O)N(C)C1CCC(C)(C)CC1)C1(O)CCC(F)(F)CC1 (some centres unmarked)', 320),
  ('CO[C@@H]1[C@@H](n2cc(-c3cc(F)c(F)c(F)c3)nn2)[C@@H](O)[C@@H](CO)O[C@H]1SC(C(=O)N(C)C)C1(O)CCC(F)(F)CC1 (some centres unmarked)', 60);

A: CO[C@@H]1[C@@H](n2cc(-c3cc(F)c(F)c(F)c3)nn2)[C@@H](O)[C@@H](CO)O[C@H]1SC(C(=O)NC1CC(F)(F)C1)C1(O)CCC(F)(F)CC1 (some centres unmarked)
B: CO[C@@H]1[C@@H](n2cc(-c3cc(F)c(F)c(F)c3)nn2)[C@@H](O)[C@@H](CO)O[C@H]1SC(C(=O)N(C)C12CC(C1)C2)C1(O)CCC(F)(F)CC1 (some centres unmarked)
C: CO[C@@H]1[C@@H](n2cc(-c3cc(F)c(F)c(F)c3)nn2)[C@@H](O)[C@@H](CO)O[C@H]1S[C@@H](C(=O)N1CCC(F)(F)CC1)C1(O)CCC(F)(F)CC1 [Example 2.44.226R.I.]
D: CO[C@@H]1[C@@H](n2cc(-c3cc(F)c(F)c(F)c3)nn2)[C@@H](O)[C@@H](CO)O[C@H]1SC(C(=O)N(C)CCC(C)(C)C)C1(O)CCC(F)(F)CC1 (some centres unmarked)
E: CNC(=O)C(S[C@@H]1O[C@H](CO)[C@H](O)[C@H](n2cc(-c3cc(F)c(F)c(F)c3)nn2)[C@H]1OC)C1(O)CCC(F)(F)CC1 (some centres unmarked)
Arrange these molecules by their IC50, starting with the largest number. Returns: the labels arranged in the requested order. C, E, A, D, B
(C: 890 nM, E: 490 nM, A: 160 nM, D: 100 nM, B: 50 nM)
